Attribution: patent US20120023600A1

Target: T1, recombinant human DKK1 (human, UniProt O94907 32-266)
T1 sequence: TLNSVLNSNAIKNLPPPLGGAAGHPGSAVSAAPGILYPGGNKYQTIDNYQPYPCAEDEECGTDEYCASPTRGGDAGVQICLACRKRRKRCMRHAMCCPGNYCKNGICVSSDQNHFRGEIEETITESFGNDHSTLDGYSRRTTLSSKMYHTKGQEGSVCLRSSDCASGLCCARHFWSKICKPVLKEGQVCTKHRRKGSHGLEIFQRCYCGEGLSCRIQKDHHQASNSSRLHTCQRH
Test: cell-based or functional assay
Kindly supply the reported TCF/LEF luc assay w/Kremen: EC50 values for the records listed here.
Answers are plain numbers, in nM.

Some entries whose results are on file:
[[record]]
binder = "MOR04921 (Fab, V domains shown) VH: QVQLVESGGGLVQPGGSLRLSCAASGFTFSSYWMSWVRQAPGKGLEWVSGISYSGSNTHYADSVKGRFTISRDNSKNTLYLQMNSLRAEDTAVYYCARMGIDLDYWGQGTLVTVSS VL: DIALTQPASVSGSPGQSITISCTGTSSDVGGFNYVSWYQQHPGKAPKLMIHDGSNRPSGVSNRFSGSKSGNTASLTISGLQAEDEADYYCQTWATSPLSSVFGGGTKLTVLG"
measurementunits = "nM"
observedmeasurement = 0.7

[[record]]
binder = "MOR04913 (Fab, V domains shown) VH: QVQLVESGGGLVQPGGSLRLSCAASGFTFNNYGMTWVRQAPGKGLEWVSGISGSGSYTYYADSVKGRFTISRDNSKNTLYLQMNSLRAEDTAVYYCARTIYMDYWGQGTLVTVSS VL: DIVLTQSPATLSLSPGERATLSCRASQNLFSPYLAWYQQKPGQAPRLLIYGASNRATGVPARFSGSGSGTDFTLTISSLEPEDFAVYYCQQYMTLPLTFGQGTKVEINR"
measurementunits = "nM"
observedmeasurement = 0.5


Next binder, please.
The recorded TCF/LEF luc assay w/Kremen: EC50 for entry MOR04954 (Fab, V domains shown) VH: QVQLVESGGGLVQPGGSLRLSCAASGFTFSSYWMSWVRQAPGKGLEWVSVIEHKDKGGTTYYAASVKGRFTISRDNSKNTLYLQMNSLRAEDTAVYYCARHGIDFDHWGQGTLVTVSS VL: DIALTQPASVSGSPGQSITISCTGTSSDLGGYNYVSWYQQHPGKAPKLMIYDVNNRPSGVSNRFSGSKSGNTASLTISGLQAEDEADYYCQSYASGNTKVVFGGGTKLTVLG equals 1.3
